Measured IC50 values are reported for all entries that follow.
- test_system: RORγt ligand-binding domain (RORγt-LBD) (Homo sapiens)
- Construct: 20 nM recombinantly expressed RORγ-LBD fused to GST
- Sequence (P51449 269-508 limits assumed): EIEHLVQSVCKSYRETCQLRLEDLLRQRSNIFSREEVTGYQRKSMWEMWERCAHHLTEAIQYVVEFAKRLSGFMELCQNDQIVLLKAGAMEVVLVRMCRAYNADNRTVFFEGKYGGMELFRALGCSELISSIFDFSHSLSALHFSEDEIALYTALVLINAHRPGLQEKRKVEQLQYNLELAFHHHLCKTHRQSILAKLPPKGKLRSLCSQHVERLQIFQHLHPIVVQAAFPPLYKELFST
- assay_protocol: Time-resolved FRET (TR-FRET) RORγt coactivator assay
- test_settings: GST-RORγ-LBD, biotinylated RIP140 peptide, coactivator displacement

compound	IC50
Cc1ccc(C(NC(=O)Cc2ccc3[nH]cc(C(=O)O)c3c2)c2ccccc2)c(Br)c1 (stereo not shown)	1000 to 10000 nM
CC(C)(C)OC(=O)CCc1c[nH]c2ccc(CC(=O)NC(c3ccccc3)c3ccccc3N3CCCC(F)(F)C3)cc12 (stereo not shown)	< 1000 nM
CCOC(=O)CCCC(=O)c1c[nH]c2ccc(CC(=O)NC(c3ccccc3)c3ccccc3N3CCCCC3)cc12 (stereo not shown)	1000 to 10000 nM
CC(C)CC(NC(=O)Cc1ccc2[nH]cc(CCC(=O)O)c2c1)c1ccc(Br)cc1N1CCCC1 (stereo not shown)	< 1000 nM
Cc1ccc(C(NC(=O)Cc2ccc3[nH]cc(CCC(=O)O)c3c2)c2ccc(C)o2)c(N2CCCCC2)c1 (stereo not shown)	< 1000 nM
CN(C)c1ccccc1C(NC(=O)Cc1ccc2[nH]cc(CC(=O)O)c2c1)c1ccccc1 (stereo not shown)	1000 to 10000 nM
Cc1ccc(C(NC(=O)Cc2ccc3[nH]cc(CCC(=O)O)c3c2)c2ncccn2)c(N2CCCCC2)c1 (stereo not shown)	< 1000 nM

====

- test_system: CYP1A2 (Homo sapiens)
- Sequence (P05177 whole entry): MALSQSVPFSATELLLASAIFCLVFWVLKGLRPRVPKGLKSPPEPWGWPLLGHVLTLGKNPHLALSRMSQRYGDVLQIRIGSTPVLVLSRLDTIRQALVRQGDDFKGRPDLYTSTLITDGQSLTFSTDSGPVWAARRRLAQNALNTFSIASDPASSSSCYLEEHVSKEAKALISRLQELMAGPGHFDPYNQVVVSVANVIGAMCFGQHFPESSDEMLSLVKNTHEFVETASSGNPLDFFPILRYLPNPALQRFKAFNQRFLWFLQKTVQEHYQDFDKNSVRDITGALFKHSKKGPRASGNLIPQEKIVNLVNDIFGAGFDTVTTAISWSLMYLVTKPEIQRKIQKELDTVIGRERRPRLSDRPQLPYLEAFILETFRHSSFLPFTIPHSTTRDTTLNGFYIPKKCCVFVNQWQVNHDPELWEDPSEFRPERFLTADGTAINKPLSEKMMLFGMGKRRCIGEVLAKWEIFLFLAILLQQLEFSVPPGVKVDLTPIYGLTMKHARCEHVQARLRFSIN
- assay_protocol: CYP inhibition CYP1A2 (CEREP)
- Format: in vitro ADME
- test_settings: human, recombinant CYP1A2, probe 3-cyano-7-ethoxycoumarin, single concentration (typically 10 μM), read-out: CYP 1A2 (% inhibition of Control)

molecule	inhibition at 10 µM [%]
O=C(O)CCc1c[nH]c2ccc(CC(=O)NC(c3ccccc3)c3ccccc3N3CCCCC3)cc12 (stereo not shown)	1
O=C(O)CCCc1c[nH]c2ccc(CC(=O)NC(c3ccccc3)c3ccccc3N3CCCCC3)cc12 (stereo not shown)	-5.4
O=C(O)CCc1c[nH]c2ccc(CC(=O)NC(c3ccccc3)c3ccc(Br)cc3N3CCCC3)cc12 (stereo not shown)	0.9
O=C(O)CCc1c[nH]c2ccc(CC(=O)NC(c3ccccc3)c3ccc(C(F)(F)F)cc3N3CCCC3)cc12 (stereo not shown)	10.7

====

Measured IC50 values are reported for all entries that follow.
- test_system: RORγt ligand-binding domain (RORγt-LBD) (Homo sapiens, UniProt P51449)
- Construct: 20 nM recombinantly expressed RORγ-LBD fused to GST
- Sequence (P51449 269-508 limits assumed): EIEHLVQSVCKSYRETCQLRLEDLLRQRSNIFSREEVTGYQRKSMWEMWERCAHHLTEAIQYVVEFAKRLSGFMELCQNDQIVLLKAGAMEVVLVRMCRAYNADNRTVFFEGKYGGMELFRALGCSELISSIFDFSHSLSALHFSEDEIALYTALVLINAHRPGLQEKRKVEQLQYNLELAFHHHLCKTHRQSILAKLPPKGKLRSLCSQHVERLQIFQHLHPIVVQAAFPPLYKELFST
- assay_protocol: Time-resolved FRET (TR-FRET) RORγt coactivator assay
- test_settings: GST-RORγ-LBD, biotinylated RIP140 peptide, coactivator displacement
- Excerpt: Time-resolved FRET (TR-FRET) RORγt coactivator assay was used to identify RORγ modulator compounds with ligand-dependent coactivator displacement. […] For reduction of background from compound fluorescence, TR-FRET method makes use of generic fluorophore labels and time resolved detection. […]

compound	IC50
Cc1cc(Br)ccc1C(NC(=O)Cc1ccc2[nH]cc(CCC(=O)O)c2c1)c1ccccc1 (stereo not drawn) [compound 44]	< 1000 nM
COc1ccc(C(NC(=O)Cc2ccc3[nH]cc(CCC(=O)OC(C)(C)C)c3c2)c2ccccc2)c(N2CCCCC2)c1 (stereo not drawn) [Cpd. 110]	< 1000 nM
CCOc1ccc(C(NC(=O)Cc2ccc3[nH]cc(CCC(=O)O)c3c2)c2ccccc2)c(OCC)c1 (stereo not drawn) [compound 247]	< 1000 nM
Cc1cc(Br)ccc1C(NC(=O)Cc1ccc2[nH]cc(CCC(=O)OC(C)(C)C)c2c1)c1ccccc1 (stereo not drawn) [Cpd. 43]	1000 to 10000 nM
Cc1ccc(C(NC(=O)Cc2ccc3[nH]cc(CCC(=O)OC(C)(C)C)c3c2)c2ccc(C)s2)c(C)c1 (stereo not drawn) [Cpd. 100]	1000 to 10000 nM
CC(C)(C)OC(=O)CCc1c[nH]c2ccc(CC(=O)NC3(c4ccccc4N4CCCCC4)CCCCC3)cc12 [Cpd. 143]	1000 to 10000 nM
CCCCC(NC(=O)Cc1ccc2[nH]cc(CCC(=O)OC(C)(C)C)c2c1)c1ccc(C)cc1N1CCCCC1 (stereo not drawn) [Cpd. 230]	1000 to 10000 nM
COC(=O)Cc1c[nH]c2ccc(NC(=O)NC(c3ccccc3)c3ccccc3N3CCCCC3)cc12 (stereo not drawn) [Cpd. 68]	1000 to 10000 nM
CC(C)(C)OC(=O)NC(=N)NC(=O)CCc1c[nH]c2ccc(CC(=O)NC(c3ccccc3)c3ccccc3N3CCCCC3)cc12 (stereo not drawn) [Cpd. 234]	1000 to 10000 nM
COc1ccc(C(NC(=O)Cc2ccc3[nH]cc(CCC(=O)O)c3c2)c2ccccc2)c(N2CCCCC2)c1 (stereo not drawn) [Cpd. 111]	< 1000 nM
COC(=O)Cc1c[nH]c2ccc(CC(=O)NC(c3ccccc3)c3ccc(C)cc3N3CCCC3)cc12 (stereo not drawn) [Cpd. 64]	< 1000 nM
O=C(O)CCc1c[nH]c2ccc(CC(=O)NC(c3ccccc3)c3ccccc3N3CCOCC3)cc12 (stereo not drawn) [compound 196]	1000 to 10000 nM
O=C(O)CCc1c[nH]c2ccc(CC(=O)NC(c3ccccc3)c3ccccc3N3CCCCC3)cc12 (stereo not drawn) [Cpd. 1]	< 1000 nM
CNc1cc(C)ccc1C(NC(=O)Cc1ccc2[nH]cc(CCC(=O)O)c2c1)c1ccccc1 (stereo not drawn) [compound 204]	< 1000 nM
CCOc1ccccc1C(CC(C)C)NC(=O)Cc1ccc2[nH]cc(CCC(=O)O)c2c1 (stereo not drawn) [compound 243]	< 1000 nM
